Molecular target: T1, Human mature myostatin (myostatin mature form; recombinant mature myostatin) (human (mature form 100% identical in …, UniProt O08689 268-376 (mouse entry), biotinylated in the Biacore assay (immobilized on a streptavidin chip); not labelled in the HEK Blue Assay)
T1 construct: Disulfide-bonded homodimer of the C-terminal growth factor domain, purified from latent myostatin expressed in FreeStyle293-F cells; also called GDF-8 mature form; C-terminal growth factor domain of human myostatin
T1 sequence: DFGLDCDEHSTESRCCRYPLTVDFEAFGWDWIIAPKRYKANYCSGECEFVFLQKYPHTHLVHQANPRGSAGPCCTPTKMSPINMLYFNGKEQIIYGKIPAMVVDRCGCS
Assay: SPR, Biacore T200, 37 degrees C; biotinylated mature myostatin on streptavidin chip; ratio of dissociation rates

Binder	Ratio of (kd pH 5.8)/(kd pH 7.4)
MS_M22601H1082-SG1/M22608L0837-SK1 (antibody, human IgG1, kappa, V domains shown, pH-dependent variant of MSLO00-SG1; also called MSLO03-SG1; LO03-SG1) VH: EVQLVESGGGLVQPGGSLRLSCAVSGFTLSHYVKGWVRQAPGKGLEWIGIINIEGETYYASWAKGRFTISRDNSKNTVYLQMNSLRAEDTAVYFCARGHDNFGYSYHDFNLWGQGTLVTVSS VL: AVVMTQSPATLSLSPGERVTLSCQASESIHHELSWYQQKPGQPPKLLIYLASTLASGVPSRFKGSGSGTDFTLTISSLQPEDAATYYCQTYDGISHYGVAFGQGTKVEIKR	26.8
